TARGET_SYSTEM: PDE5A1 (Homo sapiens)
MEASUREMENT_NAME: pIC50
Entry type: numeric. Quantity: pIC50, the -log10 of concentration in molar units.

State, for PDE5A1 (Homo sapiens), measured pIC50 of the compound listed here: Cc1sc(N)c2c(=O)oc3c4ccccc4ccc3c12 [AI-898/12177002]
5.80
